# measured-target: rP2X2R (rP2X2R-WT; rP2X2R-T for the C348T background) (Rattus norvegicus, UniProt P49653, C348T/H33A/S345A)
# Construct: full-length, C-terminal FLAG tag (DYKDDDDK), transiently expressed in HEK293 cells with EGFP; homotrimer; monomer about 62 kDa on SDS-PAGE; all point mutants made on the C348T (rP2X2R-T) background
# procedure-text: perforated-patch whole-cell voltage clamp, peak ATP-gated current, Hill fit
parameter-measured: EC50 (µM)
Number only, in µM; omit the unit.

Challenge: What value of measured EC50 is listed for Nc1ncnc2c1ncn2[C@@H]1O[C@H](COP(=O)(O)OP(=O)(O)OP(=O)(O)O)[C@@H](O)[C@H]1O [ATP] ?
Response given: 35.7

---

# measured-target: rP2X2R (rP2X2R-WT; rP2X2R-T for the C348T background) (Rattus norvegicus, UniProt P49653, C348T/I328A)
# Construct: full-length, C-terminal FLAG tag (DYKDDDDK), transiently expressed in HEK293 cells with EGFP; homotrimer; monomer about 62 kDa on SDS-PAGE; all point mutants made on the C348T (rP2X2R-T) background
# Sequence (P49653 1-472 I328A/C348T): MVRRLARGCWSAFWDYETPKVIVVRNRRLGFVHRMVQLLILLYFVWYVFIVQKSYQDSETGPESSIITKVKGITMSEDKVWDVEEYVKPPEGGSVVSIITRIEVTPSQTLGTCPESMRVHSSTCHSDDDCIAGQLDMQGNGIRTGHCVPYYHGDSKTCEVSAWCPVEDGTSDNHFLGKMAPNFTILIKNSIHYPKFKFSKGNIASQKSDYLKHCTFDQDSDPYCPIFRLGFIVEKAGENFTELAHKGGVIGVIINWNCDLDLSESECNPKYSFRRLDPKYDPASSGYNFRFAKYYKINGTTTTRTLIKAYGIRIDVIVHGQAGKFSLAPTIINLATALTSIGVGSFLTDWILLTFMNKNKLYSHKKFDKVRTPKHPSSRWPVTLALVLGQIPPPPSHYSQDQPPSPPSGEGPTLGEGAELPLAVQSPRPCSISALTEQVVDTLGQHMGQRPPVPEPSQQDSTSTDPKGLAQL
# procedure-text: perforated-patch whole-cell voltage clamp, peak ATP-gated current, Hill fit
parameter-measured: pEC50
On this scale, pEC50 is minus log10 of a concentration expressed in M (mol/L).

Challenge: What value of measured pEC50 is listed for Nc1ncnc2c1ncn2[C@@H]1O[C@H](COP(=O)(O)OP(=O)(O)OP(=O)(O)O)[C@@H](O)[C@H]1O ?
Response given: 6.40

---

# measured-target: rP2X2R (rP2X2R-WT; rP2X2R-T for the C348T background) (Rattus norvegicus, UniProt P49653, C348T/S345A)
# Construct: gene P2rx2; full-length, C-terminal FLAG tag (DYKDDDDK), transiently expressed in HEK293 cells with EGFP; homotrimer; monomer about 62 kDa on SDS-PAGE; all point mutants made on the C348T (rP2X2R-T) background
# procedure-text: perforated-patch whole-cell voltage clamp, peak ATP-gated current, Hill fit
# Format: cell-based
parameter-measured: EC50

Challenge: What value of measured EC50 is listed for Nc1ncnc2c1ncn2[C@@H]1O[C@H](COP(=O)(O)OP(=O)(O)OP(=O)(O)O)[C@@H](O)[C@H]1O [ATP] ?
Response given: 12.1 µM

---

# measured-target: rP2X2R (rP2X2R-WT; rP2X2R-T for the C348T background) (Rattus norvegicus, UniProt P49653, C348T/H33C)
# Construct: full-length, C-terminal FLAG tag (DYKDDDDK), transiently expressed in HEK293 cells with EGFP; homotrimer; monomer about 62 kDa on SDS-PAGE; all point mutants made on the C348T (rP2X2R-T) background
# procedure-text: perforated-patch whole-cell voltage clamp, peak ATP-gated current, Hill fit
parameter-measured: pEC50
On this scale, pEC50 is minus log10 of a concentration expressed in M (mol/L).

Challenge: What value of measured pEC50 is listed for Nc1ncnc2c1ncn2[C@@H]1O[C@H](COP(=O)(O)OP(=O)(O)OP(=O)(O)O)[C@@H](O)[C@H]1O ?
Response given: 5.64

---

# measured-target: rP2X2R (rP2X2R-WT; rP2X2R-T for the C348T background) (Rattus norvegicus, UniProt P49653, C348T/I328C/V48C)
# Construct: gene P2rx2; full-length, C-terminal FLAG tag (DYKDDDDK), transiently expressed in HEK293 cells with EGFP; homotrimer; monomer about 62 kDa on SDS-PAGE; all point mutants made on the C348T (rP2X2R-T) background
# procedure-text: perforated-patch whole-cell voltage clamp, peak ATP-gated current, Hill fit
# Assay type: cell-based
parameter-measured: pEC50
On this scale, pEC50 is minus log10 of a concentration expressed in M (mol/L).

Challenge: What value of measured pEC50 is listed for Nc1ncnc2c1ncn2[C@@H]1O[C@H](COP(=O)(O)OP(=O)(O)OP(=O)(O)O)[C@@H](O)[C@H]1O ?
Response given: 4.75

---

# measured-target: rP2X2R (rP2X2R-WT; rP2X2R-T for the C348T background) (Rattus norvegicus, UniProt P49653, C348T/F44C)
# Construct: full-length, C-terminal FLAG tag (DYKDDDDK), transiently expressed in HEK293 cells with EGFP; homotrimer; monomer about 62 kDa on SDS-PAGE; all point mutants made on the C348T (rP2X2R-T) background
# procedure-text: perforated-patch whole-cell voltage clamp, peak ATP-gated current, Hill fit
# Description: perforated-patch whole-cell voltage clamp, peak ATP-gated current, Hill fit on rP2X2R (rP2X2R-WT; rP2X2R-T for the C348T background)
parameter-measured: EC50
Param answer (str): number followed by unit.

Challenge: What value of measured EC50 is listed for Nc1ncnc2c1ncn2[C@@H]1O[C@H](COP(=O)(O)OP(=O)(O)OP(=O)(O)O)[C@@H](O)[C@H]1O ?
Response given: 0.81 µM

---

# measured-target: rP2X2R (rP2X2R-WT; rP2X2R-T for the C348T background) (Rattus norvegicus, UniProt P49653, C348T/H33C/S345C)
# Construct: full-length, C-terminal FLAG tag (DYKDDDDK), transiently expressed in HEK293 cells with EGFP; homotrimer; monomer about 62 kDa on SDS-PAGE; all point mutants made on the C348T (rP2X2R-T) background
# procedure-text: perforated-patch whole-cell voltage clamp, peak ATP-gated current, Hill fit
parameter-measured: pEC50
On this scale, pEC50 is minus log10 of a concentration expressed in M (mol/L).

Challenge: What value of measured pEC50 is listed for Nc1ncnc2c1ncn2[C@@H]1O[C@H](COP(=O)(O)OP(=O)(O)OP(=O)(O)O)[C@@H](O)[C@H]1O ?
Response given: 5.14
